Reference for the values: patent US20150329558A1

- target-entity: hERG potassium channel (Homo sapiens, UniProt Q12809)
- protocol-details: hERG screening assay (PatchXpress, CHO cells)
- Assay type: cell-based
- settings: % inhibition at 1 μM
Entries annotated with measured HERG*
property-name: HERG* (%)

> print(dat)
                                chem.smiles  endpoint.unit  value.qualifier  readout.number
1  Cc1nc(Cn2cnc3ccc(-c4ccc(OC(F)(F)F)cc4)cc3c2=O)no1              %                <              10
2  O=c1c2cc(-c3ccc(OC(F)(F)F)cc3)ccc2nnn1CCOc1nccc(-c2noc(C3CC3)n2)n1              %                =              31
3  O=C1c2cc(-c3ccc(OC(F)(F)F)cc3)ccc2OCN1Cc1ncccn1              %                <              10
4  O=c1c2cc(-c3ccc(OC(F)(F)F)cc3)ccc2cnn1Cc1ncccn1              %                =              13
5  O=c1c2cc(-c3ccc(OC(F)(F)F)cc3)ccc2nnn1Cc1noc(-c2ccccn2)n1              %                =              23
6  O=C1c2cc(-c3ccc(OC(F)(F)F)cc3)ccc2OCN1Cc1ccccn1              %                <              10
7  O=c1c2cc(-c3ccc(OC(F)(F)F)cc3)ccc2nnn1CCc1ncccn1              %                =              30
8  O=c1c2cc(-c3ccc(OC(F)(F)F)cc3)ccc2nnn1CC1(CN2CCOCC2)CC1              %                =              81

----------
- target-entity: hERG potassium channel (Homo sapiens, UniProt Q12809)
- protocol-details: hERG screening assay (PatchXpress, CHO cells)
- Format: cell-based
- settings: human, CHO cells that heterologously express the hERG channel, pH 7.4; at 10 μM
property-name: inhibition at 10 µM (%)

> print(dat)
                                chem.smiles        property.name  readout.number
1  Cc1noc(Cn2nnc3ccc(-c4ccc(OC(F)(F)F)cc4)cc3c2=O)n1  inhibition at 10 µM            24.5

----------
- target-entity: wild-type human cardiac sodium channel, hNav1.5 (late INa) (Homo sapiens)
- Sequence (Q14524 whole entry): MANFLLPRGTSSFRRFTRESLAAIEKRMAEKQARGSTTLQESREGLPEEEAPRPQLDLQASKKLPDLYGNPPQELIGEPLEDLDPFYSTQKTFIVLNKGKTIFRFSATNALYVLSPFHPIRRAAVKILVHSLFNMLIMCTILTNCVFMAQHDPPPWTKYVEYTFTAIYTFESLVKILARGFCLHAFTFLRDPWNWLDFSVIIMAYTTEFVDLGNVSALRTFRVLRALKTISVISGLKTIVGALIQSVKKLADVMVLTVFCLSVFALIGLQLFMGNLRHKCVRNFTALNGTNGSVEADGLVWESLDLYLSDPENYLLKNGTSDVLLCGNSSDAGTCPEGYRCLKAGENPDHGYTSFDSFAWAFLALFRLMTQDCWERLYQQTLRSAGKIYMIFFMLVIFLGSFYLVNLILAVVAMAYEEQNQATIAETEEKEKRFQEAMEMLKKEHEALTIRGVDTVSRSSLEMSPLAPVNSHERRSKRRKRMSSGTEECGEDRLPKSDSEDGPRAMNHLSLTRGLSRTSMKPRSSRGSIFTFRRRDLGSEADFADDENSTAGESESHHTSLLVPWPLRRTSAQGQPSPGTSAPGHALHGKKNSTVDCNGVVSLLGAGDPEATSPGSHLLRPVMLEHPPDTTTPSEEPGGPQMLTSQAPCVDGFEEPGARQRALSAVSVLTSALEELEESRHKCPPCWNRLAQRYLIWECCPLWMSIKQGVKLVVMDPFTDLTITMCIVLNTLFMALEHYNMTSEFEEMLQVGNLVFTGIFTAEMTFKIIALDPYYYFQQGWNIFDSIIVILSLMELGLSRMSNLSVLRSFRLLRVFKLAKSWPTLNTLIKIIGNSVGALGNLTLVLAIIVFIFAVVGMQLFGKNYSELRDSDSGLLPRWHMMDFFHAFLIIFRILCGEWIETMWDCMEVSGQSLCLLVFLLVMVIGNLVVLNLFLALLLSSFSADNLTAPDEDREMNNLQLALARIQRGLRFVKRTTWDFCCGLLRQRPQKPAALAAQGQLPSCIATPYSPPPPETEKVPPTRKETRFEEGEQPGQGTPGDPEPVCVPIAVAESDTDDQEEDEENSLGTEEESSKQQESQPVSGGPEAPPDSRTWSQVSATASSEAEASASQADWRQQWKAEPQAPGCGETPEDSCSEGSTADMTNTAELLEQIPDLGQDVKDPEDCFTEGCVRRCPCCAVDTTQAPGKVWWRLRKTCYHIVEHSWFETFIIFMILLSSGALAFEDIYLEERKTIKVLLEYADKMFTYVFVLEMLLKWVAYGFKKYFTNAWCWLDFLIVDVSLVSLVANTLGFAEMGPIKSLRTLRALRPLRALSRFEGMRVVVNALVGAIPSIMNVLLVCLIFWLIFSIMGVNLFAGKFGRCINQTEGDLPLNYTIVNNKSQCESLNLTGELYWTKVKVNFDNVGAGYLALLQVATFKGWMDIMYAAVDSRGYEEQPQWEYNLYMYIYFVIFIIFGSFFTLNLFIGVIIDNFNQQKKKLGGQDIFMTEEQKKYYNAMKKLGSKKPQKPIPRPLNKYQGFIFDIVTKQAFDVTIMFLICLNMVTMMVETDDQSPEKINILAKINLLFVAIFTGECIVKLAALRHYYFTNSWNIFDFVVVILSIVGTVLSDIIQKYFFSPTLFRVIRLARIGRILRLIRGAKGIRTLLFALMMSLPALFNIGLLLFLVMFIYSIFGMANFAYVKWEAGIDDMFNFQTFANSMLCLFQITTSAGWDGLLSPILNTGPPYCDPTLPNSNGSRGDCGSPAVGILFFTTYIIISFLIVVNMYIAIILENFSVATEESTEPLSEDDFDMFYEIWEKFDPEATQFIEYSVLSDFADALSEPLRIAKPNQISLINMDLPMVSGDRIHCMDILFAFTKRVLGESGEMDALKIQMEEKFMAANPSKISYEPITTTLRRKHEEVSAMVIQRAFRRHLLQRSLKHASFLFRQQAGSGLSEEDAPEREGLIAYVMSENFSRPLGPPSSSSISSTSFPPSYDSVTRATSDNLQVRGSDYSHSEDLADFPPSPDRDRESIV
- protocol-details: Late INa screening assay (QPatch whole cell patch clamp)
- Type: cell-based
- settings: percent block of late INa, compound at 1 μM, 10 μM Tefluthrin, HEK293 hNav1.5; read-out: Late INa 1 μM
Classify by measured inhibition at 1 µM: true if it is equal to or exceeds 30%, false if it is smaller.

> print(dat)
                                    compound  answer.label
 1  Nc1n[nH]c(C(=O)N2CCc3ccc(-c4ccc(C(F)(F)F)cc4)cc3C2)n1 [IX-111]         false
 2  O=C(N1CCc2ccc(-c3ccc(C(F)(F)F)cc3)cc2C1)N1CCC(F)C1 (stereo not drawn) [IX-94]          true
 3  O=c1c2cc(-c3cnc(N4CCCCC4)nc3)ccc2nnn1CCOc1ncccn1 [Compound V-12]         false
 4  O=C(c1ncccn1)N1CCc2ccc(-c3ccc(C(F)(F)F)cc3)cc2C1 [IX-7]          true
 5  O=c1c2cc(-c3ccc(OC(F)(F)F)cc3)ccc2nnn1CCOc1ncccn1 [II-32]          true
 6  O=C(c1ccn[nH]1)N1CCc2ccc(-c3ccc(C(F)(F)F)cc3)cc2C1 [IX-36]         false
 7  O=C1c2cc(-c3ccc(C(F)(F)F)cc3F)ccc2OCN1Cc1ncccn1 [VIII-18]          true
 8  N#Cc1ccnc(OCCn2nnc3ccc(-c4ccc(OC(F)(F)F)cc4)cc3c2=O)n1 [II-36]          true
 9  O=c1c2cc(-c3ccc(OC(F)(F)F)cc3)ccc2nnn1OCc1cccnc1 [II-59]         false
10  O=c1c2cc(-c3ccc(OC(F)(F)F)cc3)ccc2nnn1OCc1ncccn1 [II-56]         false
11  O=c1c2cc(-c3ccc(OC(F)(F)F)cc3)ccc2cnn1CCn1cccn1 [III-9]          true
12  O=c1c2cc(-c3ccc(OC(F)(F)F)cc3)ccc2cnn1Cc1cccnc1Br [III-14]          true
13  O=C(c1cnnn1-c1ccccc1)N1CCc2ccc(-c3ccc(C(F)(F)F)cc3)cc2C1 [IX-116]         false
14  O=c1c2cc(-c3ccc(OC(F)(F)F)cc3)ccc2cnn1CCc1ccncn1 [III-36]          true
15  CC(c1nc(C2CC2)no1)n1nnc2ccc(-c3ccc(OC(F)(F)F)cc3)cc2c1=O (stereo not drawn) [II-79]          true
16  C[C@@H]1CC[C@H](C)N1C(=O)N1CCc2ccc(-c3ccc(C(F)(F)F)cc3)cc2C1 [IX-106]         false
17  CC(C)c1nccc(C(=O)N2CCc3ccc(-c4ccc(C(F)(F)F)cc4)cc3C2)n1 [IX-31]         false
18  O=c1c2cc(-c3ccc(OC(F)(F)F)cc3)ccc2cnn1Cc1nccc(OCC2CC2)n1 [III-27]          true

----------
Entries annotated with measured inhibition at 1 µM
- target-entity: UniProtKB Q14524
- protocol-details: Peak INa screening assay (tonic and use-dependent block)
- Type: cell-based
- settings: tonic block of peak INa, 0.1 Hz, 1 μM; read-out: Peak TB 1 μM
property-name: inhibition at 1 µM

> print(dat)
                                chem.smiles  result
1  O=C1c2cc(-c3ccc(OC(F)(F)F)cc3)ccc2OCN1Cc1ccccn1     21%
2  O=c1c2cc(-c3ccc(OC(F)(F)F)cc3)ccc2nnn1Cc1noc(-c2ccccn2)n1      5%
3  O=c1c2cc(-c3ccc(OC(F)(F)F)cc3)ccc2cnn1CCOc1ncc(Cl)cn1      7%
4  O=C1c2cc(-c3ccc(C(F)(F)F)cc3)ccc2SCN1Cc1ncccc1F     35%
5  O=c1c2cc(-c3ccc(OC(F)(F)F)cc3)ccc2nnn1CC1(CO)CC1     11%

----------
- target-entity: wild-type human cardiac sodium channel, hNav1.5 (peak INa) (Homo sapiens)
- protocol-details: Peak INa screening assay (tonic and use-dependent block)
- Assay type: cell-based
- settings: % inhibition at 1 μM, use-dependent block 3 Hz; read-out: NAv1.5*-PEAK-UDB-3 HZ-
property-name: inhibition at 1 µM (%)

> print(dat)
                                   compound       property.name  readout.number
1  O=C1c2cc(-c3ccc(OC(F)(F)F)cc3)ccc2OCN1Cc1ccccn1 [VIII-3]  inhibition at 1 µM              12
2  O=C(c1ncc[nH]1)N1CCc2ccc(-c3ccc(C(F)(F)F)cc3)cc2C1 [IX-57]  inhibition at 1 µM               6
3  COc1cc(OC)nc(Cn2ncc3ccc(-c4ccc(OC(F)(F)F)cc4)cc3c2=O)n1 [III-19]  inhibition at 1 µM              19

----------
- target-entity: wild-type human cardiac sodium channel, hNav1.5 (peak INa) (Homo sapiens, UniProt Q14524)
- Sequence (Q14524 whole entry): as above
- protocol-details: Peak INa screening assay (tonic and use-dependent block)
- Assay type: cell-based
- settings: % inhibition at 1 μM, tonic block; read-out: NAv1.5*-PEAK-TB-
property-name: inhibition at 1 µM (%)

> print(dat)
                                 chem.smiles       property.name  readout.number
 1  O=c1c2cc(-c3ccc(OC(F)(F)F)cc3)ccc2nnn1Cc1noc(-c2ccccn2)n1  inhibition at 1 µM               5
 2  Cc1noc(Cn2cnc3ccc(-c4ccc(OC(F)(F)F)cc4)cc3c2=O)n1  inhibition at 1 µM              12
 3  O=C1c2cc(-c3ccc(C(F)(F)F)cc3)ccc2OCN1Cc1ccccn1  inhibition at 1 µM              35
 4  O=C(c1ncccc1F)N1CCc2ccc(-c3ccc(C(F)(F)F)cc3)cc2C1  inhibition at 1 µM              28
 5  O=c1c2cc(-c3ccc(OC(F)(F)F)cc3)ccc2nnn1Cc1noc(C2CC2)n1  inhibition at 1 µM               7
 6  O=c1c2cc(-c3ccc(OC(F)(F)F)cc3)ccc2nnn1CCc1ccncn1  inhibition at 1 µM              11
 7  O=c1c2cc(-c3ccc(OC(F)(F)F)cc3)ccc2nnn1CC1(CN2CCOCC2)CC1  inhibition at 1 µM              15
 8  O=C(c1ncccn1)N1CCc2ccc(-c3ccc(C(F)(F)F)cc3)cc2C1  inhibition at 1 µM              12
 9  O=c1c2cc(-c3ccc(OC(F)(F)F)cc3)ccc2cnn1CCn1cccn1  inhibition at 1 µM              15
10  O=c1c2cc(-c3ccc(OC(F)(F)F)cc3)ccc2nnn1CCOc1ncccn1  inhibition at 1 µM              16
11  O=C(c1ncccn1)N1CCc2ccc(-c3ccc(OC(F)(F)F)cc3)cc2C1  inhibition at 1 µM              17
12  COC(=O)C1(Cn2nnc3ccc(-c4ccc(OC(F)(F)F)cc4)cc3c2=O)CC1  inhibition at 1 µM               7
13  N#Cc1ccnc(OCCn2nnc3ccc(-c4ccc(OC(F)(F)F)cc4)cc3c2=O)n1  inhibition at 1 µM               7
14  O=C1c2cc(-c3ccc(OC(F)(F)F)cc3)ccc2OCN1Cc1ncccn1  inhibition at 1 µM              27
15  O=c1c2cc(-c3ccc(OC(F)(F)F)cc3)ccc2nnn1Cc1nnc(C2CC2)o1  inhibition at 1 µM              12
16  C[C@@H]1CC[C@@H](C)N1C(=O)N1CCc2ccc(-c3ccc(C(F)(F)F)cc3)cc2C1  inhibition at 1 µM               6
17  O=C(Cc1ccccn1)N1CCc2ccc(-c3ccc(C(F)(F)F)cc3)cc2C1  inhibition at 1 µM              10
18  O=c1c2cc(-c3ccc(OC(F)(F)F)cc3)ccc2nnn1CCc1ncccn1  inhibition at 1 µM              15
